Values were extracted from patent US4738979A.

Entries and their Kb values follow.
Target: α2 -adrenergic receptors (Cavia porcellus, UniProt Q60474)
Construct: from tissue; host or cells: isolated guinea pig ileum
Sequence (Q60474 1-464): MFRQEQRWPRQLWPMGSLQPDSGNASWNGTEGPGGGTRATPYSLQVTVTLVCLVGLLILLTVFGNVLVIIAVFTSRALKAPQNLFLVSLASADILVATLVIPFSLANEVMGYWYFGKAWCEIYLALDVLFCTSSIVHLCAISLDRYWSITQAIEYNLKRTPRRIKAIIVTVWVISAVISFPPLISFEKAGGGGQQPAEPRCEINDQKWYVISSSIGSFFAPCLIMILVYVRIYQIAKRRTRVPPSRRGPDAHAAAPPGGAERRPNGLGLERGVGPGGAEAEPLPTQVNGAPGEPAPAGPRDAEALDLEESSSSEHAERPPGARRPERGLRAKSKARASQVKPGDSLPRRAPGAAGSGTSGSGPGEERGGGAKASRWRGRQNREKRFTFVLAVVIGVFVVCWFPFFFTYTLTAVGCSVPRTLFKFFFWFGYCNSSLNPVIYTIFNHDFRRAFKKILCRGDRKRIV
Assay: α2 antagonist and α2 agonist activity in isolated guinea pig ileum (clonidine)
Settings: versus clonidine, read-out: α2 Antagonist Activity (pA2) (converted)
# output: bare number, implied unit nM

Worked examples follow.
Molecule	Kb, nM
Cc1ccccc1C(Cc1c[nH]cn1)c1ccccc1 (centres unmarked)	12.6
Clc1ccccc1C(Cc1c[nH]cn1)c1ccccc1 (centres unmarked)	10
COc1ccc(C(Cc2c[nH]cn2)c2ccccc2)cc1 (centres unmarked)	12.6
Fc1ccc(C(Cc2c[nH]cn2)c2ccccc2F)cc1 (centres unmarked)	15.8

In the following, a different molecule is considered.
Form field: reported Kb of Cc1ccc(C)c(C(Cc2c[nH]cn2)c2ccccc2)c1 (centres unmarked) 100
